Reported Emax (fold induction over background) is given for each of the following substances.
Target: CD137 (Homo sapiens)
Sequence (Q07011 24-255): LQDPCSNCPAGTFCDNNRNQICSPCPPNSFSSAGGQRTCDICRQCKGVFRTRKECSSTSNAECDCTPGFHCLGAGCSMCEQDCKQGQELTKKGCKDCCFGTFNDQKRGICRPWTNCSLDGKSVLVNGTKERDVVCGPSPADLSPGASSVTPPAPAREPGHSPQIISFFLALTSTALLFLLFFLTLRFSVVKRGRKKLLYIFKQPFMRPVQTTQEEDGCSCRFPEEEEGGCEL
Assay: CD137 reporter assay (Promega, Jurkat cells) in co-culture with EphA2-expressing tumor cells (A549, PC3, HT29)
Type: cell-based
Design: host or cells: Jurkat reporter cells
Conditions: CD137 reporter coculture assay with PC3 tumor cells
Starred links: 1 amine or outer side, 2 acyl side, 3 side chain; linkers in the order of their positions; H or OH if unused. Positions of bridges follow the written chain, without caps; N, C: chain ends. Non-standard residues stand in square brackets, D forms with d. Chains are numbered I, II in the order given. X1 = O=C(CCOCCOCCOCCN(CCOCCOCCOCCn1cc(CCC(=O)[*:2])nn1)CCOCCOCCOCCn1cc(CCC(=O)[*:3])nn1)[*:1]; X2 = O=C(CCSCCC(=O)[*:1])N1CN(C(=O)CC[*:2])CN(C(=O)CC[*:3])C1; TATA = O=C(CC[*:1])N1CN(C(=O)CC[*:2])CN(C(=O)CC[*:3])C1; 1Nal = N[C@@H](Cc1cccc2ccccc12)C(=O)O; Hyp = O=C(O)[C@@H]1C[C@@H](O)CN1; hArg = N=C(N)NCCCC[C@H](N)C(=O)O; tBuAla = CC(C)(C)C[C@H](N)C(=O)O; Cba = N[C@@H](CC1CCC1)C(=O)O; Nle = CCCC[C@H](N)C(=O)O; Mpa = O=C(O)CCS
Just the number.

Field: example entries. Status: answers known.
I: A[hArg]DC[Hyp]LVNPLCL[1Nal]P[dD]W[hArg]C-NH2 / II: Ac-C[tBuAla]PE[dK]PYCFADPY[Nle]CA-NH2 / III: Ac-C[tBuAla]PE[dK]PYCFADPY[Nle]CA-NH2 (linker I:4-I:11-I:18, II:1-II:8-II:15, III:1-III:8-III:15 via TATA; linker I:N-II:5-III:5 via X1) [BCY13271] : 44.20
I: A[hArg]DC[Hyp][Cba]VNPLCLEP[dD]WTC-NH2 / II: Ac-C[tBuAla]PE[dK]PYCFADPY[Nle]CA-NH2 / III: Ac-C[tBuAla]PE[dK]PYCFADPY[Nle]CA-NH2 (linker I:4-I:11-I:18, II:1-II:8-II:15, III:1-III:8-III:15 via TATA; linker I:N-II:5-III:5 via X1) [BCY13051] : 37.05

Query substance follows.
In: Look at this substance and give its reported Emax (fold induction over background). I: A[hArg]DC[Hyp]LVNPLCLEP[dD]WTC-NH2 / II: [Mpa][tBuAla]EE[dK]PYCFADPY[Nle]C-NH2 / III: [tBuAla]EE[dK]PYCFADPY[Nle]C-NH2 (linker I:4-I:11-I:18, II:1-II:8-II:15 via TATA; linker I:N-II:5-III:4 via X1; linker III:N-III:7-III:14 via X2) [BCY13140]
Out: 46.70
